B1: glmS ribozyme (parent)
chain: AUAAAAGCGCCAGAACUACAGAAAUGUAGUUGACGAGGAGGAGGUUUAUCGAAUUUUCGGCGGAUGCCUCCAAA

Variants of: B1
ASSAY COMMENT: self-cleavage kobs at 2500 uM GlcN6P; higher = faster cleavage; RNA array
CONDITION PARAMETERS: with glucosamine-6-phosphate
Variants at the floor of the assay were thinned out.
OBSERVED PROPERTY: self-cleavage kobs at 2500 uM GlcN6P (s⁻¹)

>>> measured_number("A53U C58G")
"7.16e-05"
>>> measured_number("A14U U45G C68U")
"7.43e-05"
>>> measured_number("A6U U55C")
0.000112
>>> measured_number("U30A C50G")
"6.93e-05"
>>> measured_number("U55C C58A")
0.000175
>>> measured_number("A12C U46A")
0.000533
>>> measured_number("A4C G32U U47G")
0.000118
>>> measured_number("G40A A52G")
0.000251
>>> measured_number("A6U C16U U54A")
0.000121
>>> measured_number("G40U U54A")
0.00192
>>> measured_number("G29C U30G")
0.00147
>>> measured_number("C16U G66C")
0.000496
>>> measured_number("G44U U45A")
0.000478
>>> measured_number("A52U C71U")
0.000275
>>> measured_number("A14G U30G A64G")
0.00995
>>> measured_number("A33C A42G")
0.000266
>>> measured_number("A15U U55C")
0.00158
>>> measured_number("U30A C50A C68U")
"4.96e-05"
>>> measured_number("G44U U45G C70U")
0.000791
>>> measured_number("A12U C19U U69A")
0.000303
>>> measured_number("A42G U47A")
0.0269
>>> measured_number("G26U U30A A52G C71G")
0.000299
>>> measured_number("C16U A53G")
0.013
>>> measured_number("A53G C61U C68G")
"6.94e-05"
>>> measured_number("A14G U55G G66U")
0.00182
>>> measured_number("C16U C58G C68G")
"7.79e-05"
>>> measured_number("C11U U30C")
0.000213
>>> measured_number("C50U U54A C70U")
"2.99e-05"
>>> measured_number("U31G G41A")
0.000482
>>> measured_number("A39U U46C")
0.00541
>>> measured_number("C10U G29U C61A C67G")
0.000121
>>> measured_number("U30A A53G")
0.00301
>>> measured_number("A14G C67G")
0.00164
>>> measured_number("C70A C71U")
"8.22e-05"
>>> measured_number("A14U U49C U57G C70G")
"6.68e-05"
>>> measured_number("G40C G66A C70A")
0.000246
>>> measured_number("A15C A42G C67U")
0.000389
>>> measured_number("C16U G29C U55A")
0.00365
>>> measured_number("G13C U45A")
"9.3e-05"
>>> measured_number("G32U C50G C71G")
0.000194
>>> measured_number("U55G U65G")
0.00164
>>> measured_number("U45G U56A")
0.00206
>>> measured_number("G21U")
0.0337
